- Tested on: MS2 coat protein
- TEST DETAILS: apparent Kd, MS2 coat protein; higher = weaker binding; RNA-MaP array; FMN 200 µM where present
- ASSAY CONDITIONS: designed as: OFF switch for flavin mononucleotide; no ligand
Mark no (0) for apparent Kd values under 20 nM, and yes (1) for everything at or above.

Would you please look over these solved cases?
- RESIDUE CODES: "CUAAAUCAUGUAGGAUAUGCGUGGCGAAGCUAUGCAGAAGGACAUGAGGAUCACCCAUGUCUUUCUGUCUGCGUACAGACGGAA"
  QUALITATIVE LABEL: "yes (1)"
- RESIDUE CODES: "CUUUUGUGAGGAUAUCAGUAGUAUAUAAAUAAAAUUACUACUGAGAAGGCACAUGAGGAUCACCCAUGUUCCUC"
  QUALITATIVE LABEL: "yes (1)"

Prompt: I'd appreciate it if you could say whether CUUUGAUGAGGAUAUCGAGGUUAGUACAUGAGGAUCACCCAUGUUAUCCAGGUGUCGGUUCGAGAAGGUAUUGGAC has apparent Kd at least equal to 20 nM.
Response: no (0)

Prompt: Subsequent entry: GGUACUCAAAGAGUACCAAUACGAACAUGAGGAUCACCCAUGUAGGAUAUGCUACUCAAAGAGUAGCAGAAGGAUAUGUGCUUA
Response: no (0)

Prompt: Subsequent entry: GUCAUGUCAGGAUAUGCUUAUGAUGGGUGCUCAGACAUGAUGCAGAAGGGACAUGAGGAUCACCCAUGUACUGU
Response: yes (1)

Prompt: Subsequent entry: AUUGACUGAGGAUAUUGUACUGCUGACAUGAGGAUCACCCAUGUAUGCUAACUCGGCCGUCGAGAAGGCAGUCAUG
Response: yes (1)

Prompt: Subsequent entry: UCCGUGGCAUCUCGCGCGUGUCCACAUGAGGAUCACCCAUGUCAGGAUAUACGGAAUGUCGUUCCGUAGAAGGGACAAGGGCUG
Response: yes (1)

Prompt: Subsequent entry: UGAUUACGAGGAUAUACAUGAGGAUCACCCAUGUAGUCAGGGCCCAUACUCCGAGCAUGUAGAAGGCGUUGUCU
Response: yes (1)

Prompt: Subsequent entry: GGUACUCAAAGAGUACCAAUACGAACAUGAGGAUCACCCAUGUAGGAUAUGCUAAAACCGGAGUAGCAGAAGGACAUGUGCCUA
Response: no (0)

Prompt: Subsequent entry: UUGAACAUAGGAUAUAGUUGUUUGUACAUGAGGAUCACCCAUGUUAUGUAUGUUUUGUUUCUAGAAGGAUGUUGAU
Response: yes (1)
